# TEST_PROTOCOL: Solubility of the prodrug in water, glycerol and propylene glycol
# Assay type: physicochemical
# RUN_PARAMETERS: thermodynamic from solid; water; room temperature; read-out: Solubility in water
READOUT_LABEL: solubility (mg/mL)
Provide the reading as a plain figure in mg/mL.

Bench note: what solubility did CC(=O)Nc1ccc(OC(=O)OP(=O)(O)O)cc1 show?
152

###

# TEST_PROTOCOL: Solubility of the prodrug in water, glycerol and propylene glycol
# Type: physicochemical
# RUN_PARAMETERS: organic solvent or mixture, thermodynamic from solid; propylene glycol d=1.036 g/mL; read-out: Solubility in propylene glycol
# Description: Solubility of the prodrug (4-acetamidophenyl carbonic) phosphoric anhydride was determined in water, glycerol, and propylene glycol. 10 mg of (4-acetamidophenyl carbonic) phosphoric anhydride was weighed into a vial, small amounts of solvent were added and the mixture was sonicated until a solution formed.
READOUT_LABEL: solubility (mg/mL)
Provide the reading as a plain figure in mg/mL.

Bench note: what solubility did CC(=O)Nc1ccc(OC(=O)OP(=O)(O)O)cc1 show?
154
